// reported protein stability index per item
B1: FAM107A (parent)
chain: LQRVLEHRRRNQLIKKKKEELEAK

Variants of: B1
TEST SUMMARY: protein stability index of a GFP-peptide fusion (GPS, HEK-293T) (PSI 1-6); higher = more stable;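 also: lentivirally expressed fusions sorted by FACS into six bins by GFP to DsRed ratio, PSI derived from sequencing read proportions per bin multiplied by bin number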
TEST CONTEXT: c terminus: a fixed tail appended
Kindly provide the number alone.

MUTANT ID | protein stability index
Q2R | 3.67
I14S | 3.92
K15S | 3.86
R10I | 3.3
R10Y | 4.04

Fill blank: measured protein stability index of the variant L1G is ____.
4.37

Okay, and Q12G ?
2.85

Okay, and I14Y ?
3.28

Okay, and L13K ?
3.43

Provenance of the data: the supplement of paper PMC10567573
